relative affinity overview
# study_system: T1, HLA-DRB5 (HLA-DRB5*01:01) (human)
# T1 construct: mature; purified from homozygous EBV-transformed lymphoblastoid cells with antibody L243
# method_description: competition ELISA vs biotin-HA 306-318;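 also: HLA and competitor incubated 24 to 72 h, maximal signal taken from wells lacking competitor, background from wells lacking HLA molecule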
No end group written: not given here.

Recorded relative affinity, per entry:
INSERT INTO measurements (binder, result) VALUES
  ('RAILIDWLVQVQMKF-NH2 [CCNB1 202-216]', 55),
  ('GNMRAILIDWLVQVQ-NH2 [CCNB1 199-213]', 58),
  ('KKMLQLVGVTAMFIA-NH2 [CCNB1 241-255]', 1),
  ('FRLLQETMYMTVSII-NH2 [CCNB1 216-230]', 50),
  ('ETMYMTVSIIDRFMQ-NH2 [CCNB1 221-235]', 1);

Input line: # relative affinity lookup, item MTVSIIDRFMQNNCV-NH2 [CCNB1 225-239]
Output line: 79

Input line: Try the binder RPLPLHFLRRASKIG-NH2 [CCNB1 299-313]
Output line: 26

Input line: Next binder up: VQMKFRLLQETMYMT-NH2 [CCNB1 212-226]
Output line: 2

Input line: Now consider LQLVGVTAMFIASKY-NH2 [CCNB1 244-258] and answer again.
Output line: 1

Input line: // repeat for GDFAFVTDNTYTKHQ-NH2 [CCNB1 267-281] and report
Output line: 24

Input line: Check QHYLSYTEESLLPVM-NH2 [CCNB1 366-380] too.
Output line: 471

Input line: Let us now turn to PTLQHYLSYTEESLL-NH2 [CCNB1 363-377]
Output line: 24

Input line: Same thing, different binder: DWLVQVQMKFRLLQE-NH2 [CCNB1 207-221]
Output line: 5

Input line: TAMFIASKYEEMYPP-NH2 [CCNB1 250-264] ?
Output line: 82

Input line: Thanks! And SEYVKDIYAYLRQLE-NH2 [CCNB1 168-182] ?
Output line: 3

Reference for the values: patent US20180086804A1
